- Test system: U2OS
- assayComment: Incucyte cell viability with U2OS; note: filed as whole numbers so only -1 and 0 and 1 occur
- Assay type: toxicity, cell-based
- runParameters: human, 0 h, 10 µM, compound concentration 10 uM, replicate number 1, timepoint 0 hours

>  <compound>
Cl.Oc1ccc2c3c1O[C@H]1c4[nH]c5c(c4C[C@@]4(O)[C@@H](C2)N(CC2CC2)CC[C@]314)C[C@@]1(O)[C@H]2Cc3ccc(O)c4c3[C@@]1(CCN2CC1CC1)[C@H]5O4

>  <Growth Rate>
0

$$$$
>  <compound>
Cl.O=C([C@@H](Cc1cccc(C(F)(F)F)c1)NS(=O)(=O)c1cc(F)c2c(c1)CCNC2)N1CCCC1

>  <Growth Rate>
0

$$$$
>  <compound>
CC[C@H](CO)Nc1nc(NCc2ccccc2)c2ncn(C(C)C)c2n1 [SELICICLIB]

>  <Growth Rate>
1

$$$$
>  <compound>
O=C1NC(=O)C(c2cnc3ccccn23)=C1c1cn2c3c(cc(F)cc13)CN(C(=O)N1CCCCC1)CC2 [LY-2090314]

>  <Growth Rate>
0

$$$$

###

- Tested on: Fibroblast
- assayComment: Multiplex assay against human fibroblast
- Format: toxicity, cell-based
- runParameters: 12 h, 1 µM, compound concentration 1 uM, replicate 1
assayReadout: Population Mitochondria Different-Phenotype (%)

>  <compound>
CCNc1cc(N[C@H]2CC[C@H](O)CC2)nc(Nc2ccc3c(ccn3Cc3ccccc3)c2)n1

>  <experimentalValue>
11

$$$$
>  <compound>
Cn1nc(C(F)(F)F)cc1-c1cnc(N2CCc3cc(S(=O)(=O)Nc4c(F)cc(Cl)cc4F)cc(N4CCCC4=O)c32)nc1

>  <experimentalValue>
4

$$$$
>  <compound>
CN1CCN(C(=O)C(C)(C)c2ccc(C(=O)Nc3cn4cc(-c5cc(C(C)(C)C)cc(C(C)(C)C)c5)ccc4n3)cc2)CC1

>  <experimentalValue>
1

$$$$
>  <compound>
S=C(NCCCc1c[nH]cn1)NCCCN(Cc1ccc(Cl)c(Cl)c1)c1ccc(Br)cn1

>  <experimentalValue>
11

$$$$
>  <compound>
Cc1ccc(C(=O)Nc2cccc(C(F)(F)F)c2)cc1Nc1nc(-c2cccnc2)nc2c1cnn2C

>  <experimentalValue>
3

$$$$
>  <compound>
O=C1N/C(=N/c2ccccc2F)S/C1=C\c1ccc(C(=O)O)cc1

>  <experimentalValue>
2

$$$$
>  <compound>
Cc1cn(-c2cc(NC(=O)c3ccc(C)c(Nc4nccc(-c5cccnc5)n4)c3)cc(C(F)(F)F)c2)cn1

>  <experimentalValue>
20

$$$$
>  <compound>
COc1cccc2cc(-c3nc([C@H]4CC[C@H](C(=O)O)CC4)n4ncnc(N)c34)[nH]c12

>  <experimentalValue>
0

$$$$
>  <compound>
CCc1cccc(CC)c1NC(=O)c1nn(C)c2c1CCc1cnc(Nc3ccc(N4CCN(C)CC4)cc3OC)nc1-2

>  <experimentalValue>
72

$$$$
>  <compound>
CCOc1cc(C(=O)N2CCC(N3CCN(C)CC3)CC2)ccc1Nc1ncc2c(n1)N(C1CCCC1)c1ccccc1C(=O)N2C

>  <experimentalValue>
27

$$$$
>  <compound>
CCc1cccc(CC)c1NC(=O)c1nn(C)c2c1CCc1cnc(Nc3ccc(C(=O)NC4CCN(C)CC4)cc3OC(F)(F)F)nc1-2

>  <experimentalValue>
7

$$$$
>  <compound>
C=C1/C(=C\C=C2/CCC[C@]3(C)[C@@H]([C@H](C)/C=C/[C@H](C)C(C)C)CC[C@@H]23)C[C@@H](O)C[C@@H]1O

>  <experimentalValue>
0

$$$$
>  <compound>
NC(=O)c1cccc(-c2cc(Nc3ccc(OC(F)(F)F)cc3)ncn2)c1

>  <experimentalValue>
6

$$$$
>  <compound>
CNC(=O)c1ccc(Nc2nc(OC3CCCC3)c3c(-c4ccc5nc(C)oc5c4)c[nH]c3n2)c(OC)c1

>  <experimentalValue>
5

$$$$
>  <compound>
CN1C2CCC1CC(OC(c1ccc(F)cc1)c1ccc(F)cc1)C2.Cl (stereo unspecified)

>  <experimentalValue>
11

$$$$
>  <compound>
CCOc1cc2ncc(C#N)c(Nc3ccc(OCc4ccccn4)c(Cl)c3)c2cc1NC(=O)/C=C/CN(C)C

>  <experimentalValue>
13

$$$$
